Target: CD28 (Homo sapiens, UniProt P10747)
Assay: Flow binding to Jurkat/IL2 reporter cells (CD28)
Parameters: host or cells: Jurkat cells expressing an IL-2-luciferase reporter
Details: Table E19; Jurkats (CD28); 33.3 nM
reported_property: CD28 MFI at 33.3 nM
I'd appreciate a reply containing only the number, no unit.

Use these answered entries as a reference point.
V68M/L85Q (protein) VIHVTKEVKEVATLSCGHNVSVEELAQTRIYWQKEKKMVLTMMSGDMNIWPEYKNRTIFDITNNLSIMILALRPSDEGTYECVVQKYEKDAFKREHLAEVTLSVKAD: 91.7
D46V/L85Q (protein) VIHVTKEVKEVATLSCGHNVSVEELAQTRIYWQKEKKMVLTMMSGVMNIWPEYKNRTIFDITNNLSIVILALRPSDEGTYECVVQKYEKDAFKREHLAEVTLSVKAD: 131

Q. Please give the documented CD28 MFI at 33.3 nM of E35D/M47L: variant CD80 IgV-Fc, IgV SEQ ID NO:208 (protein) VIHVTKEVKEVATLSCGHNVSVEELAQTRIYWQKDKKMVLTMMSGDLNIWPEYKNRTIFDITNNLSIVILALRPSDEGTYECVVLKYEKDAFKREHLAEVTLSVKAD
A. 411

Q. Please give the documented CD28 MFI at 33.3 nM of E35D/N48K/V68M/K89N (protein) VIHVTKEVKEVATLSCGHNVSVEELAQTRIYWQKDKKMVLTMMSGDMKIWPEYKNRTIFDITNNLSIMILALRPSDEGTYECVVLKYENDAFKREHLAEVTLSVKAD
A. 1534
